target: DNA cytosine-5 methyltransferase (DCMTase, Dnmt1) (Mus musculus, UniProt P13864 P13864:1-1620); assay: inhibition; Kis, noncompetitive with poly(dIdC:dIdC); Kii 6800 +/- 1200 nM; Tris pH 8.0, 37 C; conditions: tags: none; purified from mouse erythroleukemia (MEL) cells
Sequence (P13864 whole entry, one chain of several): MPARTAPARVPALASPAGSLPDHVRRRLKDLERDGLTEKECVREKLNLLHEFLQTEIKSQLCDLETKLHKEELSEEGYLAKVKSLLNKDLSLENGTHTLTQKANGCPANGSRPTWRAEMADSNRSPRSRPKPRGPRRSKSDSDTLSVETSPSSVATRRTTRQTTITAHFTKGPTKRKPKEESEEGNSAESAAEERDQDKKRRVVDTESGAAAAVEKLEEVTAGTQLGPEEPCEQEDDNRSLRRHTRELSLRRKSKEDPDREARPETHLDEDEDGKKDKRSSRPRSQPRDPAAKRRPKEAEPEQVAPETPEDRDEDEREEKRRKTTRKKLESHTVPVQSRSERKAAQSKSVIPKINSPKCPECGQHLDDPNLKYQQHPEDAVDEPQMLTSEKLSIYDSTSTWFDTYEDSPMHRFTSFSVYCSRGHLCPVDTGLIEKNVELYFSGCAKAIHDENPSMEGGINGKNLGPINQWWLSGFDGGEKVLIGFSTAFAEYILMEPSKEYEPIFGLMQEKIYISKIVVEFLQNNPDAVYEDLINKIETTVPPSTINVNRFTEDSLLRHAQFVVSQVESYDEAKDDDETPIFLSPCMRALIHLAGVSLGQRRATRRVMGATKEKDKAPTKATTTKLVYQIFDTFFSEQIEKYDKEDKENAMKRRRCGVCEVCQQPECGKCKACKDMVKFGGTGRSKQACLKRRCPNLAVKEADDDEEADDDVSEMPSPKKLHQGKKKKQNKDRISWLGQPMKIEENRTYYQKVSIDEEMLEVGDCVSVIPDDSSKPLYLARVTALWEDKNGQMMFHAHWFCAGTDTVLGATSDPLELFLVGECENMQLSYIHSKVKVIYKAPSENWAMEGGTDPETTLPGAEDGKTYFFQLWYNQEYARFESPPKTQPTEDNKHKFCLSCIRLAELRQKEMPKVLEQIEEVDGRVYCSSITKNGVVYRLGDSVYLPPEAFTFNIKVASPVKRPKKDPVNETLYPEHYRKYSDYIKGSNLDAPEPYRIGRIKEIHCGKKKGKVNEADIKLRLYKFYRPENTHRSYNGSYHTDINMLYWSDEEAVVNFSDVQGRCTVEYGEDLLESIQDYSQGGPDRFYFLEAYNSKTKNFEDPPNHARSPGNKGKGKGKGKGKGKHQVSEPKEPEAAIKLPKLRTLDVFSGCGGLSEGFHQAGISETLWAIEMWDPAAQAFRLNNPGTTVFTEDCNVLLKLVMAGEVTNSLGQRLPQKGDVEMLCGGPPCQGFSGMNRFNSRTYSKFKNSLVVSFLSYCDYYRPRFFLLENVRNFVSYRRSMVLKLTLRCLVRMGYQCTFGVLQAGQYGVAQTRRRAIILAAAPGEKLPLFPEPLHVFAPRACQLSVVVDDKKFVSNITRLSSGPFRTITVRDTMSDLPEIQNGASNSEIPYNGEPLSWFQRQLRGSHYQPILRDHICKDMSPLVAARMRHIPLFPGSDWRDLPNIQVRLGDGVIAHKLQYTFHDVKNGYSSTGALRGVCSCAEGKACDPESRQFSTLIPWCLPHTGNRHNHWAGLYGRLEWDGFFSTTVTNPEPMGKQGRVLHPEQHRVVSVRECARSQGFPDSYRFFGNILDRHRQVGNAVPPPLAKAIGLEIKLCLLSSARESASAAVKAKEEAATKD
recorded endpoint: pKi
Keep in mind that pKi stands for -log10 of concentration in molar terms.

### Prompt Given the binder CTGGATCCTTGCCCCGCCCCTTGAATTCCC (ssDNA) [GC-box b] , write its reported pKi.
### Response 5.44
